Tested on: UACC-257 melanoma
Test: NCI-60 one-dose screen, 48 h (100 = growth as untreated, 0 = no growth, -100 = all killed)
Conditions: 10 µM
Procedure: Cells are grown in 96 well plates and exposed to the test compound for 48 hours. Compounds are tested at a single concentration, which is 10^-5 M for most compounds. The reported endpoint is percent growth (GI% or GIPRCNT), where numbers from 0 - 100% represent growth inhibition, and numbers from -100% - 0 represent cell death. For example, a value of 40 represents 60% growth inhibition. A value of 0 means no net growth occurred over the course of the experiment. […]
Compounds without any hit were thinned out: in the full panel of roughly 83,000, 20% have a hit.
Field 'label' (enum: Y / N). Set to Y when growth is strictly under 60%; else N.

// below: answered molecules
MOLECULE: NS(=O)(=O)c1ccc(N2N=C(c3ccccc3)CCC2=O)cc1
EXPERIMENTAL_TARGET: UACC-257 melanoma
ANSWER_LABEL: N
--
MOLECULE: Nc1c(Br)cc(Br)c2c1[nH]c(=O)c1ccccc12
EXPERIMENTAL_TARGET: UACC-257 melanoma
ANSWER_LABEL: N
--
MOLECULE: CN(C)CCOc1cccc(-c2nc3sccn3c2-c2ccnc(S(C)(=O)=O)n2)c1
EXPERIMENTAL_TARGET: UACC-257 melanoma
ANSWER_LABEL: N

Incoming: Record "CCOc1ccccc1/C=N\N=C(\N)N/N=C/c1ccccc1OCC" : is its growth strictly below 60%?
Outgoing: Y

Incoming: Note, next up: "COc1ccc(-c2nn(-c3cccc(Cl)c3)cc2-c2c(C#N)c(N)n(N)c(=O)c2C#N)cc1"
Outgoing: N

Incoming: Note, next up: "CC[C@@H]1NC(=O)[C@H]([C@H](O)[C@H](C)C/C=C/c2ccc(CN3C(=O)CCCC3=O)cc2)N(C)C(=O)[C@H](C(C)C)N(C)C(=O)[C@H](CC(C)C)N(C)C(=O)[C@H](CC(C)C)N(C)C(=O)[C@@H](C)NC(=O)[C@H](C)NC(=O)[C@H](CC(C)C)N(C)C(=O)[C@H](C(C)C)NC(=O)[C@H](CC(C)C)N(C)C(=O)CN(C)C1=O"
Outgoing: Y

Incoming: Note, next up: "COc1ccc2c(c1)C(=O)/C(=C/c1ccc([N+](=O)[O-])o1)O2"
Outgoing: Y

Incoming: Note, next up: "O=S(=O)(O)c1cccc(Nc2ccc3ccccc3c2)c1"
Outgoing: N

Incoming: Note, next up: "CC(C)(C)c1ccc(S(=O)(=O)N[C@H]2CC[C@H]3[C@@H]4CCc5cc(O)c([N+](=O)[O-])cc5[C@H]4CC[C@]23C)cc1"
Outgoing: N

Incoming: Note, next up: "N=C1S/C(=C/c2ccc(-c3ccc4c(c3)C(=O)NC4=O)o2)C(=O)N1c1ccc(Br)cc1"
Outgoing: Y

Incoming: Note, next up: "O=C(Nc1ccc(F)cc1)c1cc2ccccc2cc1O"
Outgoing: Y

* * *

System: SK-MEL-2 melanoma
Experiment: NCI-60 one-dose screen, 48 h
Settings: 10 µM
This is part of a sample that, as a whole, favours compounds with a hit. Of some 83,000 tested, about 20% had one in any assay. Calls of active or inactive are those of the source. Rule for the calls: active = growth percent below 10; inactive = the rest.
Select the matching outcome among true (1) (active), false (0) (inactive)

// below: answered compounds
COMPOUND: COc1cc(NC(=O)C2=C(N3CCOCC3)/C(=C/c3ccc(Cl)cc3)CC2)cc(OC)c1OC
ANSWER_LABEL: false (0)

COMPOUND: CCN1CCN(CCC(=O)Nc2cccc(-n3cc(-c4ccncc4)c(-c4ccc(Cl)c(OC)c4)n3)c2)CC1
ANSWER_LABEL: true (1)

COMPOUND: Cc1ccc(-c2c3c(N)nc(-c4cccnc4)nc3nc3c2c(C)nn3-c2ccccc2)cc1
ANSWER_LABEL: false (0)

COMPOUND: O=C(CCCSc1nc(-c2ccc(Cl)cc2)cc(-c2ccc(Cl)cc2)n1)NO
ANSWER_LABEL: false (0)

COMPOUND: O=C(COc1cccc(/C=C2\CSc3ccccc3C2=O)c1)c1ccc(Cl)cc1
ANSWER_LABEL: true (1)

Incoming: GET /call?item= "COc1cc2cc(Oc3ccc(NC(=O)c4cc(C(F)(F)F)cc(C(F)(F)F)c4)cc3)c(C)nc2cc1OC" returns the recorded outcome of this test.
Outgoing: false (0)

Incoming: Note, next up: Nc1ccc(-c2cccs2)cc1NC(=O)c1ccc(CCCC(=O)Nc2ccc(C3CC3N)cc2)cc1 (stereo unspecified)
Outgoing: false (0)

Incoming: Note, next up: "COc1ccc(/C=C/C(=O)C(=O)/C=C/c2ccc(OC)c(OC)c2)cc1OC"
Outgoing: false (0)

Incoming: Note, next up: "Cc1ccc(S(=O)(=O)N/N=C2\CCCc3ccccc32)cc1"
Outgoing: false (0)

Incoming: Note, next up: "Cc1ccc(NC(=O)N2CCCCC2)cc1[N+](=O)[O-]"
Outgoing: false (0)

Incoming: Note, next up: "Cc1ccc(S(=O)(=O)N(C)CCCCCC(=O)O)cc1"
Outgoing: false (0)

Incoming: Note, next up: "O=C(N/N=C/c1c(Cl)cccc1Cl)c1ccccc1Nc1cccc(C(F)(F)F)c1"
Outgoing: false (0)

Incoming: Note, next up: "N#Cc1cnn(C(=O)c2nn(-c3ccc(Cl)cc3)cc2O)c1N"
Outgoing: true (1)

Incoming: Note, next up: "COc1ccc2nc(-c3ccc(Cl)cc3)cc(-c3nnc(SC/C(=N\O)c4ccccc4)n3-c3ccccc3)c2c1"
Outgoing: false (0)

Incoming: Note, next up: COc1ccc(C(c2ccc(OCCN(C)C)cc2)c2cc3ccccc3c3ccccc23)cc1 (stereo unspecified)
Outgoing: false (0)

The measured values listed here are drawn from PubChem BioAssay (NCI).
